Just for reference, the supplement of paper PMC10065799 is where these values come from.

# TESTED TARGET: Hck (UniProt P08631)
# Sequence (P08631 whole entry, looked up): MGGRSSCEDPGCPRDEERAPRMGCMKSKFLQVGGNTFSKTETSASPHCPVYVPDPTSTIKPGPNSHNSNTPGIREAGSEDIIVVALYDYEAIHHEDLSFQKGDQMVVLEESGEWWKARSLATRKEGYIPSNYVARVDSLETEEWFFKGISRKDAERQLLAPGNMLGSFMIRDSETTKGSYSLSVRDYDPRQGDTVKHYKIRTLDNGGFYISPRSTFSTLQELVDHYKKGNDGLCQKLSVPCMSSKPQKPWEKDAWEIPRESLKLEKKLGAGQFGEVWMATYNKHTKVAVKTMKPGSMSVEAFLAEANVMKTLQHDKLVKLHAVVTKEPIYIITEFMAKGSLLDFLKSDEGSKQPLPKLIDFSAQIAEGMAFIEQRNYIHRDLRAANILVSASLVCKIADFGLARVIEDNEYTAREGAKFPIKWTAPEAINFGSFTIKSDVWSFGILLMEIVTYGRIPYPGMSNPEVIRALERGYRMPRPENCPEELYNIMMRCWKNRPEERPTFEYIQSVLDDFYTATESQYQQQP
# PROTOCOL DESCRIPTION: phosphorylation enrichment, bacterial display (enrichment ratio); higher = better substrate or ligand; peptides without Tyr show the background;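 further: 11-residue human phosphosite peptides and single-mutation variants displayed on the E. coli surface, counted by deep sequencing, each peptide's frequency after selection divided by its frequency in the unselected input library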;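 further: frequency after pTyr selection over input frequency; kinase dosed for 20-30% of maximal phosphorylation in three min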
Classes are defined on phosphorylation enrichment with ranges low (below 0.5), moderate (0.5 to below 0.9), high (0.9 or more)

KDHPDYKYQLR [SOX10_Y171_P175L]: low
QNTGDYCDLYG [PTPN11_Y62_Y63C]: high
VAVVDYVEPSP [TXNRD2_Y70]: low
AATTAYSKPKR [MAP3K7_Y405]: low
AKIDGYIISFR: low
VTRLRYPVCFG [ITK_Y336]: moderate
RRIHSYRGFLW [VHL_Y112_H115Y_YF]: low
ETRWKYHFEVV [GCNT3_Y267]: moderate

*Q* // bin(item) where item = FEDTLYTVLHR [UNC13D_Y61_A59T_YF]
*A* high

*Q* // bin(item) where item = AFLLLCFNDTH [BMP15_Y235_Y235C]
*A* moderate

*Q* // bin(item) where item = FTNELYMMMRD [FGFR1_Y730_C725Y_YF]
*A* high

*Q* // bin(item) where item = VLAHKYHGGGG [HBB_Y146_A141V]
*A* low

*Q* // bin(item) where item = QSKGIYFVQLE [MGAT4B_Y262_YF]
*A* high

*Q* // bin(item) where item = KKFVPYYDLFM [IPO5_Y530_E525K]
*A* high

*Q* // bin(item) where item = TRSYKCLLLSM [NF1_Y491_Y491C]
*A* low
